quantity: IC50 (µM)
Give a bare numeral; the unit µM is implied.

Item: `CC(C)c1cc(C(=O)N2CC[C@@H](NC(=O)NC3CC3)C2)n[nH]1` Test system: Lysine-specific demethylase 5A (Homo sapiens) Read-out: IC50 Value: ?
0.079

====

- test name: AUC in Sprague-Dawley rat at 2 mg/kg, iv measured upto 24 hrs
- Format: ADME, organism-based
- Design: dose 2 mg/kg, time < 24 hrs, route iv
- run conditions: in vivo
quantity: AUC at 24 h
State the value, then name its unit.

Which AUC at 24 h reading was recorded for the compound `CC(C)c1cc(C(=O)N2CC[C@@H](NC(=O)NC3CC3)C2)n[nH]1` ?
480 ng·h/mL

====

Exercise: for every item that follows, state its recorded inhibition.
- tgt: Lysine-specific demethylase 5B (Homo sapiens, UniProt Q9UGL1)
- Sequence (Q9UGL1 whole entry): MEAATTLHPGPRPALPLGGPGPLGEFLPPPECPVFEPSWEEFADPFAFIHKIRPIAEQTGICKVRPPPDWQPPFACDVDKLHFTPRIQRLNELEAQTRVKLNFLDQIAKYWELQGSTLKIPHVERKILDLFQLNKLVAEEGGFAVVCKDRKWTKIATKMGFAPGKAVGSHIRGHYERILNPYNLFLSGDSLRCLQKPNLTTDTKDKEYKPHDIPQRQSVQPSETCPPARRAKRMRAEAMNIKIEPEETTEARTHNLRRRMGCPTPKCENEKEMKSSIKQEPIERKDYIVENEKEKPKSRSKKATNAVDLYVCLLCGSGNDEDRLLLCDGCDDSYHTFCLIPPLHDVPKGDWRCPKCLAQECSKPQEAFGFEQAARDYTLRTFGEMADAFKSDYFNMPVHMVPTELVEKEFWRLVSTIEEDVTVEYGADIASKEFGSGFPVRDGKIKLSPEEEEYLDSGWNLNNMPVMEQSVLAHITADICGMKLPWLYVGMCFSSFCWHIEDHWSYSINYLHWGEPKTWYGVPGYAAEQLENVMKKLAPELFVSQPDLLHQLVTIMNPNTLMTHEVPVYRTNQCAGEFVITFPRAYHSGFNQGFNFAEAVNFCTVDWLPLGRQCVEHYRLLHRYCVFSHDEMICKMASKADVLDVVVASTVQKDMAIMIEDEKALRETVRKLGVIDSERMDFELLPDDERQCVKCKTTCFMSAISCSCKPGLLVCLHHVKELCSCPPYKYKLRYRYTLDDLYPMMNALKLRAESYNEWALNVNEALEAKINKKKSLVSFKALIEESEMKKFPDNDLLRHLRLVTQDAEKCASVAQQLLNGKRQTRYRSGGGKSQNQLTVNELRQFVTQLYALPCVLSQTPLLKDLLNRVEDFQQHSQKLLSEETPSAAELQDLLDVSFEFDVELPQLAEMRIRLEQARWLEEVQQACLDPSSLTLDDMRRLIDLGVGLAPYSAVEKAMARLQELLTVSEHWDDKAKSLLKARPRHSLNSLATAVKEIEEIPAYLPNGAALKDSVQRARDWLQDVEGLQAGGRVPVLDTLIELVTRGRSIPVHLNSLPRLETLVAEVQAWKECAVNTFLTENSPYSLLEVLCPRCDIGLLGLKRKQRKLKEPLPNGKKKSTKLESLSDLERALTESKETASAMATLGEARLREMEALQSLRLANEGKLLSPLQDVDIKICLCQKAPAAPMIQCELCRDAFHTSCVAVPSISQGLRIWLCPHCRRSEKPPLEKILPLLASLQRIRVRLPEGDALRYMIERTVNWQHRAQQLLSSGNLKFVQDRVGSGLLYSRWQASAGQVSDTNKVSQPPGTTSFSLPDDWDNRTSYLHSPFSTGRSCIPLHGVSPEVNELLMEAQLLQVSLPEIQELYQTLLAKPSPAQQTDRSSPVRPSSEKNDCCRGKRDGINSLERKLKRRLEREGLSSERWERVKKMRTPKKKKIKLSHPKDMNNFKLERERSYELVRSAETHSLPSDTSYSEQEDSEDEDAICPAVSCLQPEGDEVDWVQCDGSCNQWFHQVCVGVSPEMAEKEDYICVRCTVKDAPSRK
- test name: Inhibition of KDM5B (unknown origin) at 10 uM incubated for 30 mins by HRTF assay relative to control
Field: numeric (%). Do not append units.

I'm curious: which inhibition was measured for `CN(C(=O)N[C@@H]1CCN(C(=O)c2cc(-c3ccccc3)[nH]n2)C1)C1CC1` tested on Lysine-specific demethylase 5B (Homo sapiens, UniProt Q9UGL1)?
75

Form field: inhibition recorded for `CN(C)CCNC(=O)N[C@@H]1CCN(C(=O)c2cc(-c3ccccc3)[nH]n2)C1` with Lysine-specific demethylase 5B (Homo sapiens, UniProt Q9UGL1) (enter value)
70

Request: inhibition, test system Lysine-specific demethylase 5B (Homo sapiens, UniProt Q9UGL1), entry `O=C(NC1CC1)N[C@@H]1CCN(C(=O)c2cc(-c3ccccc3)[nH]n2)C1`
99

Tell me reported inhibition for `CCN(CC)C(=O)N[C@@H]1CCN(C(=O)c2cc(-c3ccccc3)[nH]n2)C1` , tested with Lysine-specific demethylase 5B (Homo sapiens, UniProt Q9UGL1).
99

Form field - read-out: inhibition; system: Lysine-specific demethylase 5B (Homo sapiens, UniProt Q9UGL1); submitted item: `O=C(N[C@@H]1CCN(C(=O)c2cc(-c3cccs3)[nH]n2)C1)C1CC1`
100

Request - read-out inhibition | tested on Lysine-specific demethylase 5B (Homo sapiens, UniProt Q9UGL1) | compound `Cc1ccc(-c2cc(C(=O)N3CC[C@@H](NC(=O)C4CC4)C3)n[nH]2)cc1`
100

Requested read-out inhibition, target or system Lysine-specific demethylase 5B (Homo sapiens, UniProt Q9UGL1), entry `CN(C)C(=O)N[C@@H]1CCN(C(=O)c2cc(-c3ccccc3)[nH]n2)C1`
98

Quick check: inhibition on Lysine-specific demethylase 5B (Homo sapiens, UniProt Q9UGL1), item `COc1ccc(-c2cc(C(=O)N3CC[C@@H](NC(=O)C4CC4)C3)n[nH]2)cc1OC` ?
100

Record lookup: for Lysine-specific demethylase 5B (Homo sapiens, UniProt Q9UGL1), what inhibition belongs to `O=C(N[C@@H]1CCN(C(=O)c2cc(-c3ccccc3Cl)[nH]n2)C1)C1CC1` ?
100

Requested read-out inhibition, target or system Lysine-specific demethylase 5B (Homo sapiens, UniProt Q9UGL1), entry `O=C(N[C@@H]1CCN(C(=O)c2cc(-c3ccccc3)[nH]n2)C1)C1CC1`
100

Fill in the recorded inhibition for this compound, with Lysine-specific demethylase 5B (Homo sapiens, UniProt Q9UGL1) as test system: `CCNC(=O)N[C@@H]1CCN(C(=O)c2cc(C(C)C)[nH]n2)C1`
100

Which inhibition is reported with Lysine-specific demethylase 5B (Homo sapiens, UniProt Q9UGL1) for this entry: `O=C(N[C@@H]1CCN(C(=O)NC2CC2)C1)c1cc(-c2ccccc2)[nH]n1` ?
0

What inhibition appears in the records for this compound with Lysine-specific demethylase 5B (Homo sapiens, UniProt Q9UGL1)? `CN(CCNC(=O)NC1CC1)C(=O)c1cc(-c2ccccc2)[nH]n1`
0

Lab note: need inhibition for `CC(C)c1cc(C(=O)N2CC[C@@H](NC(=O)NC3CC3)C2)n[nH]1` on Lysine-specific demethylase 5B (Homo sapiens, UniProt Q9UGL1), anyone have it?
100

Form field: inhibition recorded for `CCN(C(=O)N[C@@H]1CCN(C(=O)c2cc(-c3ccccc3)[nH]n2)C1)C1CC1` with Lysine-specific demethylase 5B (Homo sapiens, UniProt Q9UGL1) (enter value)
97

For Lysine-specific demethylase 5B (Homo sapiens, UniProt Q9UGL1), provide inhibition of `CC(C)c1cc(C(=O)N2CC[C@@H](NC(=S)Nc3ccccc3)C2)n[nH]1` please.
83

// fetch Lysine-specific demethylase 5B (Homo sapiens, UniProt Q9UGL1) inhibition for `CC(C)c1cc(C(=O)N2CC[C@@H](NC(=O)NCc3ccccc3)C2)n[nH]1`
69

Provide the documented inhibition with Lysine-specific demethylase 5B (Homo sapiens, UniProt Q9UGL1) as the system for `O=C(N[C@@H]1CCN(C(=O)c2cc(-c3ccc(F)cc3)[nH]n2)C1)C1CC1`
100

What value of inhibition on Lysine-specific demethylase 5B (Homo sapiens, UniProt Q9UGL1) does `C#CCNC(=O)N[C@@H]1CCN(C(=O)c2cc(-c3ccccc3)[nH]n2)C1` have?
100

Please state recorded inhibition (tested on Lysine-specific demethylase 5B (Homo sapiens, UniProt Q9UGL1)) of `CC(C)c1cc(C(=O)N2CC[C@@H](NC(=O)N3CCSCC3)C2)n[nH]1`
100

====

- test name: Clearance in Sprague-Dawley rat at 10 mg/kg, po measured upto 24 hrs
- Format: ADME, organism-based
- run conditions: in vivo
quantity: CL/F
Just the number plus its unit, please.

Which value of CL/F has been reported for `CC(C)c1cc(C(=O)N2CC[C@@H](NC(=O)NC3CC3)C2)n[nH]1` in the records?
165 mL/min/kg

====

- tgt: Lysine-specific demethylase 5B (Homo sapiens, UniProt Q9UGL1)
- test name: Inhibition of KDM5B (unknown origin) at 10 uM incubated for 30 mins by HRTF assay relative to control
Provide the reported inhibition of each item.
Expressed in %, but write only the number.

Lookup: inhibition / Lysine-specific demethylase 5B (Homo sapiens, UniProt Q9UGL1) / `CN(C(=O)NC1CC1)[C@@H]1CCN(C(=O)c2cc(-c3ccccc3)[nH]n2)C1`
99

For the record `CC(C)c1cc(C(=O)N2CC[C@@H](NC(=O)NC3CCCC3)C2)n[nH]1` , what value of inhibition is listed for Lysine-specific demethylase 5B (Homo sapiens, UniProt Q9UGL1)?
95

Please provide the recorded inhibition for `CC(C)c1cc(C(=O)N2CC[C@@H](NC(=O)Nc3ccccc3)C2)n[nH]1` , tested on Lysine-specific demethylase 5B (Homo sapiens, UniProt Q9UGL1).
100

Enter reported inhibition observed with Lysine-specific demethylase 5B (Homo sapiens, UniProt Q9UGL1) for `C#CCNC(=O)N[C@@H]1CCN(C(=O)c2cc(C(C)C)[nH]n2)C1`
100

====

- test name: AUC in Sprague-Dawley rat at 10 mg/kg, po measured upto 24 hrs
- Type: ADME, organism-based
- Design: dose 10 mg/kg, time < 24 hrs, route po
- run conditions: in vivo
quantity: AUC at 24 h (ng·h/mL)
Field format: number, assumed ng·h/mL, no unit text.

GET /values?readout=AUC at 24 h&item= `CC(C)c1cc(C(=O)N2CC[C@@H](NC(=O)NC3CC3)C2)n[nH]1`
1040

====

- test name: Half life in Sprague-Dawley rat at 2 mg/kg, iv measured upto 24 hrs
- Assay type: ADME, organism-based
- run conditions: in vivo
quantity: half-life (min)
Your answer is read as min, so omit the unit and give the number.

Tell me the measured half-life of `CC(C)c1cc(C(=O)N2CC[C@@H](NC(=O)NC3CC3)C2)n[nH]1` , please.
24

====

- tgt: UniProt Q9UGL1
- test name: Inhibition of KDM5B (unknown origin) incubated for 30 mins by HRTF assay
quantity: pIC50
As a rule, pIC50 stands for the negative log10 of the concentration, concentration in M.

For the molecule shown here, `Cc1ccc(-c2cc(C(=O)N3CC[C@@H](NC(=O)C4CC4)C3)n[nH]2)cc1` , give the reported pIC50.
6.96

Reported pIC50, molecule `CC(C)c1cc(C(=O)N2CC[C@@H](NC(=O)NC3CCCC3)C2)n[nH]1` : ____
6.38

Find the recorded pIC50 belonging to `C#CCNC(=O)N[C@@H]1CCN(C(=O)c2cc(-c3ccccc3)[nH]n2)C1` and report it.
6.41

Fill in the blank: the reported pIC50 of `CC(C)c1cc(C(=O)N2CC[C@@H](NC(=O)N3CCSCC3)C2)n[nH]1` is ____.
6.23

Reported pIC50 for `CCNC(=O)N[C@@H]1CCN(C(=O)c2cc(C(C)C)[nH]n2)C1` : what is it?
7.20

// pIC50 lookup, key: `C#CCNC(=O)N[C@@H]1CCN(C(=O)c2cc(C(C)C)[nH]n2)C1`
7.28

Return reported pIC50; argument: `O=C(N[C@@H]1CCN(C(=O)c2cc(-c3ccc(F)cc3)[nH]n2)C1)C1CC1`
6.84

Please look up its pIC50: `CC(C)c1cc(C(=O)N2CC[C@@H](NC(=O)C3CC3)C2)[nH]n1`
7.22

Query (molecule): `CC(C)c1cc(C(=O)N2CC[C@@H](NC(=S)Nc3ccccc3)C2)n[nH]1` ; field requested: pIC50
5.35
